Below: a set of entries, each annotated with reported pEC50.
# Test system: influenza virus A/Udorn/72 strain (H3N2)
# Assay Explanation: MDCK cell-based plaque reduction assay, influenza A/Udorn/72
# Particulars: influenza virus A/Udorn/72 strain (H3N2); 50% reduction of plaques in MDCK cells
pEC50: −log10 of the molar value.

Here is how some molecules turned out for pEC50.
In plain terms, c1ccc2c(OC3CCOCC3)ccnc2c1 [Compound 11j] has a documented pEC50 of < 4.00

In plain terms, CC(C)(C)OC(=O)N[C@@H](Cc1ccccc1)C(=O)N1CCC(Sc2ccnc3ccccc23)CC1 [Compound 12a] has a documented pEC50 of 4.81

In plain terms, CC(C)(C)OC(=O)N[C@@H](CC(N)=O)C(=O)N1CCC(Sc2ccnc3ccccc23)CC1 [Compound 12b] has a documented pEC50 of < 4.00

Now consider the entry below.
In plain terms, c1ccc2c(OC3CCNCC3)ccnc2c1 [Compound 11h, 4-(Piperidin-4-yloxy)quinolone] has a documented pEC50 of < 4.00
